Give measured combination Emax for each item. Keep answers brief.
# Test system: 8505C (Thyroid Gland Carcinoma)
# experimental-protocol: combination Emax (second highest fraction inhibited in the dose matrix, 72 h); higher = more inhibition; extreme values may be limits of the assay
// response body must contain only the number

Problem: So what's the measured combination Emax for this one? COc1nnc2ccc(N3CCC(c4ccc(OCCN5CCN(C)C(=O)[C@H]5C)cc4)CC3)nn12 [AZD5153] + C=CCn1c(=O)c2cnc(Nc3ccc(N4CCN(C)CC4)cc3)nc2n1-c1cccc(C(C)(C)O)n1 [AZD1775] (first compound max 1 µM, partner max 1 µM)
Solution: 0.574

Problem: What about this molecule? NC1(C(=O)N[C@@H](CCO)c2ccc(Cl)cc2)CCN(c2ncnc3[nH]ccc23)CC1 [Capivasertib] + Cn1cnc2c(F)c(Nc3ccc(Br)cc3Cl)c(C(=O)NOCCO)cc21 [Selumetinib] (first compound max 10 µM, 7x7, partner max 10 µM)
Solution: 0.5

Problem: Entry CC1(C)CCC(CN2CCN(c3ccc(C(=O)NS(=O)(=O)c4ccc(NCC5CCOCC5)c([N+](=O)[O-])c4)c(Oc4cnc5[nH]ccc5c4)c3)CC2)=C(c2ccc(Cl)cc2)C1 [Venetoclax] + C=CCn1c(=O)c2cnc(Nc3ccc(N4CCN(C)CC4)cc3)nc2n1-c1cccc(C(C)(C)O)n1 [AZD1775] (first compound max 1 µM, partner max 1 µM) please
Solution: 0.244

Problem: Now consider NC1(C(=O)N[C@@H](CCO)c2ccc(Cl)cc2)CCN(c2ncnc3[nH]ccc23)CC1 [Capivasertib] + C[C@@H]1COCCN1C2=NC(=NC(=C2)C3(CC3)[S@](=N)(=O)C)C4=C5C=CNC5=NC=C4 [AZD6738] (first compound max 10 µM, 7x7, partner max 10 µM) and answer again.
Solution: 0.475

Problem: Another molecule to check: Cc1c2c(nn1C)CSCc1cc(n(C)n1)CSc1cc(c3ccccc3c1)OCCCc1c(C(=O)O)n(C)c3c-2c(Cl)ccc13 [AZD5991] + CC1(C)CCC(CN2CCN(c3ccc(C(=O)NS(=O)(=O)c4ccc(NCC5CCOCC5)c([N+](=O)[O-])c4)c(Oc4cnc5[nH]ccc5c4)c3)CC2)=C(c2ccc(Cl)cc2)C1 [Venetoclax] (first compound max 1 µM, 7x7, partner max 1 µM)
Solution: 0.135

Problem: // same read-out, input: CC(=O)c1c(C)c2cnc(Nc3ccc(N4CCNCC4)cn3)nc2n(C2CCCC2)c1=O [Palbociclib] + CC1(C)CCC(CN2CCN(c3ccc(C(=O)NS(=O)(=O)c4ccc(NCC5CCOCC5)c([N+](=O)[O-])c4)c(Oc4cnc5[nH]ccc5c4)c3)CC2)=C(c2ccc(Cl)cc2)C1 [Venetoclax] (first compound max 10 µM, 7x7, partner max 1 µM)
Solution: 0.047

Problem: COc1nnc2ccc(N3CCC(c4ccc(OCCN5CCN(C)C(=O)[C@H]5C)cc4)CC3)nn12 [AZD5153] + Cn1cnc2c(F)c(Nc3ccc(Br)cc3Cl)c(C(=O)NOCCO)cc21 [Selumetinib] (first compound max 1 µM, 7x7, partner max 10 µM) , same question.
Solution: 0.593

Problem: Also, CC1(C)CCC(CN2CCN(c3ccc(C(=O)NS(=O)(=O)c4ccc(NCC5CCOCC5)c([N+](=O)[O-])c4)c(Oc4cnc5[nH]ccc5c4)c3)CC2)=C(c2ccc(Cl)cc2)C1 [Venetoclax] + CN(C)CCCOc1ccc(-c2ccc3ncc4c(c3c2)n(C2CCOCC2)c(=O)n4C)cn1 [AZD0156] (first compound max 1 µM, 7x7, partner max 1 µM) please.
Solution: 0.2

Problem: Let us now turn to CCc1c2c(nc3ccc(O)cc13)-c1cc3c(c(=O)n1C2)COC(=O)[C@]3(O)CC [SN-38] + O=C(c1cc(Cc2n[nH]c(=O)c3ccccc23)ccc1F)N1CCN(C(=O)C2CC2)CC1 [Olaparib] (first compound max 0.3 µM, 7x7, partner max 10 µM)
Solution: 0.849

Problem: Again, but for Cc1c2c(nn1C)CSCc1cc(n(C)n1)CSc1cc(c3ccccc3c1)OCCCc1c(C(=O)O)n(C)c3c-2c(Cl)ccc13 [AZD5991] + Cn1cnc2c(F)c(Nc3ccc(Br)cc3Cl)c(C(=O)NOCCO)cc21 [Selumetinib] (first compound max 1 µM, 7x7, partner max 3 µM)
Solution: 0.42

Problem: Now consider Cc1c2c(nn1C)CSCc1cc(n(C)n1)CSc1cc(c3ccccc3c1)OCCCc1c(C(=O)O)n(C)c3c-2c(Cl)ccc13 [AZD5991] + CCN(CCO)CCCOc1ccc2c(Nc3cc(CC(=O)Nc4cccc(F)c4)[nH]n3)ncnc2c1 [AZD2811] (first compound max 1 µM, 7x7, partner max 1 µM) .
Solution: 0.866

Problem: Queued: CC1(C)CCC(CN2CCN(c3ccc(C(=O)NS(=O)(=O)c4ccc(NCC5CCOCC5)c([N+](=O)[O-])c4)c(Oc4cnc5[nH]ccc5c4)c3)CC2)=C(c2ccc(Cl)cc2)C1 [Venetoclax] + C[C@@H]1COCCN1C2=NC(=NC(=C2)C3(CC3)[S@](=N)(=O)C)C4=C5C=CNC5=NC=C4 [AZD6738] (first compound max 1 µM, 7x7, partner max 10 µM)
Solution: 0.482

Problem: Subsequent entry: COc1cccc(OCCCN)c1-c1cc(Nc2cnc(C#N)cn2)n[nH]1 [Prexasertib] + C=CCn1c(=O)c2cnc(Nc3ccc(N4CCN(C)CC4)cc3)nc2n1-c1cccc(C(C)(C)O)n1 [AZD1775] (first compound max 1 µM, partner max 1 µM)
Solution: 0.727

* * *

# System: NCI-H526 (Small Cell Lung Carcinoma);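 also: after 72 h of two-drug dosing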
# experimental-protocol: Bliss excess, mean over the matrix (fraction); higher = more synergy
I would appreciate it if you labelled entries Condition met when Bliss excess is 0.008 or higher, otherwise Condition not met.

Problem: Assess whether reported Bliss excess for Cn1cnc2c(F)c(Nc3ccc(Br)cc3Cl)c(C(=O)NOCCO)cc21 [Selumetinib] + CC(C)n1c(=O)n(C)c2cnc3cc(F)c(-c4ccc(OCCCN5CCCCC5)nc4)cc3c21 [AZD1390] (first compound max 10 µM, 7x7, partner max 0.3 µM) sits at 0.008 or higher.
Solution: Condition not met

Problem: Please give the result for Cn1cnc2c(F)c(Nc3ccc(Br)cc3Cl)c(C(=O)NOCCO)cc21 [Selumetinib] + C=CCn1c(=O)c2cnc(Nc3ccc(N4CCN(C)CC4)cc3)nc2n1-c1cccc(C(C)(C)O)n1 [AZD1775] (first compound max 10 µM, partner max 1 µM) too.
Solution: Condition not met

Problem: Now the same for Cc1c2c(nn1C)CSCc1cc(n(C)n1)CSc1cc(c3ccccc3c1)OCCCc1c(C(=O)O)n(C)c3c-2c(Cl)ccc13 [AZD5991] + C[C@@H](Nc1cc(F)cc(F)c1)c1cc(C(=O)N(C)C)cc2c(=O)cc(N3CCOCC3)oc12 [AZD8186] (first compound max 1 µM, 7x7, partner max 3 µM)
Solution: Condition met

Problem: Moving on to CN(CCO)CC[C@H](CSc1ccccc1)Nc1ccc(S(=O)(=O)NC(=O)c2ccc(N3CCC([C@@H](O)c4ccccc4-c4ccc(Cl)cc4)CC3)cc2)cc1S(=O)(=O)C(F)(F)F [AZD4320] + CCN(CCO)CCCOc1ccc2c(Nc3cc(CC(=O)Nc4cccc(F)c4)[nH]n3)ncnc2c1 [AZD2811] (first compound max 1 µM, 7x7, partner max 1 µM)
Solution: Condition met

Problem: Same again, this time with C[C@@H](Oc1cc(-c2cnn(C3CCNCC3)c2)cnc1N)c1c(Cl)ccc(F)c1Cl [Crizotinib] + Cn1cnc2c(F)c(Nc3ccc(Br)cc3Cl)c(C(=O)NOCCO)cc21 [Selumetinib] (first compound max 10 µM, 7x7, partner max 10 µM)
Solution: Condition not met

Problem: Here is the next molecule: COc1cc2ncnc(Nc3ccc(F)c(Cl)c3)c2cc1OCCCN1CCOCC1 [Gefitinib] + CC(C)n1c(=O)n(C)c2cnc3cc(F)c(-c4ccc(OCCCN5CCCCC5)nc4)cc3c21 [AZD1390] (first compound max 10 µM, 7x7, partner max 0.3 µM)
Solution: Condition not met

* * *

Could you please report measured combination Emax for the items listed next?
# Test system: KP-3 (Pancreatic Carcinoma)
# experimental-protocol: combination Emax (second highest fraction inhibited in the dose matrix, 72 h); higher = more inhibition; extreme values may be limits of the assay
Answer using only a numeral; do not append any unit.

Problem: // query combination Emax value for entry NC1(C(=O)N[C@@H](CCO)c2ccc(Cl)cc2)CCN(c2ncnc3[nH]ccc23)CC1 [Capivasertib] + CC(=O)c1c(C)c2cnc(Nc3ccc(N4CCNCC4)cn3)nc2n(C2CCCC2)c1=O [Palbociclib] (first compound max 10 µM, 7x7, partner max 10 µM)
Solution: 0.25

Problem: // next record CCN(CCO)CCCOc1ccc2c(Nc3cc(CC(=O)Nc4cccc(F)c4)[nH]n3)ncnc2c1 [AZD2811] + C=CCn1c(=O)c2cnc(Nc3ccc(N4CCN(C)CC4)cc3)nc2n1-c1cccc(C(C)(C)O)n1 [AZD1775] (first compound max 1 µM, partner max 1 µM)
Solution: 0.209

Problem: Subsequent entry: CN(CCO)CC[C@H](CSc1ccccc1)Nc1ccc(S(=O)(=O)NC(=O)c2ccc(N3CCC([C@@H](O)c4ccccc4-c4ccc(Cl)cc4)CC3)cc2)cc1S(=O)(=O)C(F)(F)F [AZD4320] + C1CN(CCC1(C(=O)N[C@@H](CCO)C2=CC=C(C=C2)Cl)N)C3=NC=NC4=C3C=CN4 [Capivasertib] (first compound max 1 µM, 7x7, partner max 3 µM)
Solution: 0.0865

Data origin, for the record: the supplement of paper PMC11061612
